Provenance of the data: patent US20160122430A1

molecular target: T1, human CS1 (HuCS1) (human, UniProt Q9NQ25 23-335); assay: flow cytometry on L-363 cells; GeoMean (max) relative to elotuzumab
T1 construct: also called FL-HuCS1; SLAMF7
result.type: % of Elotuzumab (%)
Write the number in % without appending the unit.

Please look at this binder and report its % of Elotuzumab: HuCS1.31D2.2 (antibody, V domains shown, Humanized antibody; It has a human Fc (detected with anti-human Fc); also called Hu31D2) VH: EVQLVESGGGLVQPGGSLRLSCAASGFTFSDYYMAWVRQAPGKGLEWVADINYDGGSTYYLDSLKSRFTISRDNAKNSLYLQMNSLRAEDTAVYYCARDRGYYFDYWGQGTLVTVSS VL: DVVMTQSPLSLPVTPGEPASISCRSSQSLVHSNGNTYLHWYLQKPGQSPQLLIYKVSNRFSGVPDRFSGSGSGTDFTLKISRVEAEDVGVYFCSQSTHVPPFTFGGGTKVEIK 160
